measuredOn: Authentic CoV2 (SARS-CoV-2 JPN/TY/WK-521)
assayProcedure: cell-based or functional assay
quantityName: IC50, authentic virus neutralization [NT-193] (µg/mL)
Output spec: scalar in µg/mL, unitless text.

Reported IC50, authentic virus neutralization [NT-193] ( NT-193, human IgG4 subclass (antibody, V domains shown) VH: EVQLQQWGAGLLKPSETLSLTCAVYGGSFSGYYWSWIRQPPGKGLEWIGEINHSGSTNYNPSLKSRVTISVDTSKNQFSLKLSSVTAADTAVYYCARGWDLDYYYGMDVWGQGTTVTVSS VL: DIRMTQSPSAMSASVGDRVTVTCRASQGIGNYLAWFQLKPGKVPKRLIYAASSLQSGVPARFSGGGSGTEFTLTISSLQPEDFATYYCLQHGFLPWTFGQGTKLEIK ) = 0.247
